target of assay: UniProt:P43405
condition parameters: read-out: rhSYK Activity; Table 117
pIC50: −log10 of the molar value.
measurement name: pIC50

For every item in the list below, what is its measured pIC50?
1. Cc1cc(Nc2nccc(C(F)(F)F)n2)cc(-c2cnc(C3(O)CCC(CC(N)=O)CC3)s2)c1 (stereo not drawn) [Example 117-9]
2. Cc1cc(Nc2nccc(C(F)(F)F)n2)cc(-c2cnc(C3(O)CCC(CC(N)=O)CC3)s2)c1 (stereo not drawn) [Example 117-10]
3. Cc1cc(Nc2nccc(C(F)(F)F)n2)cc(-c2cnc(C(C)(O)c3ccc(C(N)=O)cc3)s2)c1 (single isomer, unassigned) [Example 117-21]

["> 7.00", "> 7.00", "> 7.00"]
